- measurement.notes: Food-effect crossover bioavailability study, 600 mg fed vs fasted, healthy adult subjects (Example 2)
- Type: in vivo, human
- measurement.conditions: both sexes, human, plasma, po, 600 mg, 600 mg PO, fasted, Max
value.type: concentration at 12 hours (µg/mL)
Quick reminder: number only, in µg/mL, skip the unit.

Consider CC(C)(C)NC(=O)N[C@H](C(=O)N1C[C@H]2[C@@H]([C@H]1C(=O)NC(CC1CCC1)C(=O)C(N)=O)C2(C)C)C(C)(C)C (mixture of isomers) [Formula Ia] . Its measured concentration at 12 hours is 0.027

---

- measurement.notes: Phase 1 rising-single-dose pharmacokinetic study in healthy adult subjects (Example 1)
- Type: in vivo, human
- measurement.conditions: human, plasma, po, 200 mg, single oral dose 200 mg, mean, n = 6; read-out: AUC(l)
value.type: AUC
Respond with the figure and its unit, in that order.

Consider CC(C)(C)NC(=O)N[C@H](C(=O)N1C[C@H]2[C@@H]([C@H]1C(=O)NC(CC1CCC1)C(=O)C(N)=O)C2(C)C)C(C)(C)C (mixture of isomers) . Its measured AUC is 846 ng·h/mL

---

- measurement.notes: Food-effect crossover bioavailability study, 600 mg fed vs fasted, healthy adult subjects (Example 2)
- Assay type: in vivo, human
- measurement.conditions: both sexes, human, plasma, po, 600 mg, 600 mg PO, fed, Min
value.type: concentration at 8 hours

Consider CC(C)(C)NC(=O)N[C@H](C(=O)N1C[C@H]2[C@@H]([C@H]1C(=O)NC(CC1CCC1)C(=O)C(N)=O)C2(C)C)C(C)(C)C (mixture of isomers) . Its measured concentration at 8 hours is 33.6 ng/mL

---

- measurement.notes: Multiple oral dosing for 14 days, pharmacokinetics in HCV infected subjects (Example 3)
- Assay type: in vivo, human
- measurement.conditions: Day 14, 400 mg TID, at 0 hour (trough) predose, mean
value.type: Cmin (ng/mL)
Quick reminder: number only, in ng/mL, skip the unit.

Consider CC(C)(C)NC(=O)N[C@H](C(=O)N1C[C@H]2[C@@H]([C@H]1C(=O)NC(CC1CCC1)C(=O)C(N)=O)C2(C)C)C(C)(C)C (mixture of isomers) . Its measured Cmin is 183

---

- measurement.notes: Multiple oral dosing for 14 days, pharmacokinetics in HCV infected subjects (Example 3)
- Format: in vivo, human
- measurement.conditions: human, plasma, oral, 200 mg, Day 14, 200 mg BID, mean; read-out: t½ (converted)
value.type: half-life

Consider CC(C)(C)NC(=O)N[C@H](C(=O)N1C[C@H]2[C@@H]([C@H]1C(=O)NC(CC1CCC1)C(=O)C(N)=O)C2(C)C)C(C)(C)C (mixture of isomers) [Formula Ia] . Its measured half-life is 804 min

---

- measurement.notes: Multiple oral dosing for 14 days, pharmacokinetics in HCV infected subjects (Example 3)
- Assay type: in vivo, human
- measurement.conditions: human, plasma, oral, 200 mg, Day 14, 200 mg BID, mean
value.type: Cmax (ng/mL)
Quick reminder: number only, in ng/mL, skip the unit.

Consider CC(C)(C)NC(=O)N[C@H](C(=O)N1C[C@H]2[C@@H]([C@H]1C(=O)NC(CC1CCC1)C(=O)C(N)=O)C2(C)C)C(C)(C)C (mixture of isomers) . Its measured Cmax is 424
